target: A1AR (A1 adenosine receptor) (Homo sapiens, UniProt P30542)
Sequence (P30542 whole entry): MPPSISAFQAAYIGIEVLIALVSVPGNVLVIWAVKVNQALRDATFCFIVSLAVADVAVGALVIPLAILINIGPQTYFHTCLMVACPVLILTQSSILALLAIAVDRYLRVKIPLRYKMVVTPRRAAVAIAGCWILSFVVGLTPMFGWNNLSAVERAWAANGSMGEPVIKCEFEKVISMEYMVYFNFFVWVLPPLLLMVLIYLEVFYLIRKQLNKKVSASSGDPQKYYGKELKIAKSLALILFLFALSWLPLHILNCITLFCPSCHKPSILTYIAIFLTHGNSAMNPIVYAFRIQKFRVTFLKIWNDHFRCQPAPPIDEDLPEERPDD
observable: pKi
pKi here: minus log base 10 of the concentration, concentration in moles per litre.

Looking up COc1cc(/C=C\C(=O)CC(=O)/C=C/c2ccc(O)c(OC)c2)ccc1O [CTCUR, cis-trans curcumin] , I see its pKi listed as 6.51
